- Test system: 186277-243-T-J2-PDC complex spheroids, viability;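 note: spheroids exposed to compounds for 7 days before viability read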
- Assay Details: Anticancer human tumor 186277-243-T-J2-PDC patient-derived colon adenocarcinoma cell line growth inhibition [RAS]
- Run Parameters: second compound 1 µM; first compound 3.16 µM; active compounds read low
# viability, T/C per record follows
The answer is to be given in %; state only the numeric part.

Compound: CC(=O)OC12COC1CC(O)C1(C)C(=O)C(O)C3=C(C)C(OC(=O)C(O)C(NC(=O)OC(C)(C)C)c4ccccc4)CC(O)(C(OC(=O)c4ccccc4)C21)C3(C)C (configuration not stated) + C=CC(=O)N1CCN(c2nc(OCC3CCCN3C)nc3c(F)c(-c4nc(N)cc(C)c4C(F)(F)F)c(Cl)cc23)C(C)C1
System Tested: 186277-243-T-J2-PDC complex spheroids, viability;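 note: spheroids exposed to compounds for 7 days before viability read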
viability, T/C / %: 11.8

viability, T/C for 186277-243-T-J2-PDC complex spheroids, viability with input C[C@@H](NC(=O)c1ncnc(N)c1Cl)c1ncc(C(=O)Nc2cc(C(F)(F)F)c(Cl)cn2)s1 + C=CC(=O)N1CCN(c2nc(OCC3CCCN3C)nc3c(F)c(-c4nc(N)cc(C)c4C(F)(F)F)c(Cl)cc23)C(C)C1 equals 91.2
